- experiment: Pharmacokinetics in rats, intravenous
- Format: in vivo, Sprague-Dawley rats
- assay.conditions: Sprague-Dawley; rat, single intravenous bolus 2 mg/kg, tosylate salt, plasma

- compound: "CS(=O)(=O)CCNCc1ccc(-c2ccc3ncnc(Nc4ccc(OCc5cccc(F)c5)c(Cl)c4)c3c2)o1.Cc1ccc(S(=O)(=O)O)cc1 [Lapatinib, reference compound]"
  half-life / h: 1
